Assay: in vivo
Conditions: male, rat, plasma, im, 90 mg/kg
testReadout: half-life (days)
Report the figure in days without appending any unit label.

Asked: Identify half-life associated with the compound CCCCCCCCCC(=O)O[C@H]1CC[C@@]2(C)C(=CC[C@@H]3[C@@H]2CC[C@]2(C)C(c4cccnc4)=CC[C@@H]32)C1 [Abiraterone Decanoate, Abiraterone decanoate]
Given back: 33

---

Test: in vivo
Conditions: Beagle, dog, im, absolute bioavailability for abiraterone
testReadout: bioavailability (%)
Quick note: give the figure in %, leave out the unit.

Asked: Using the record for C[C@]12CC[C@H](O)CC1=CC[C@@H]1[C@@H]2CC[C@]2(C)C(c3cccnc3)=CC[C@@H]12 , state its measured bioavailability.
Given back: 72
